# Test system: nucleoli in RPE1 normal cells
# procedure.summary: IC50 disrupting nucleoli in normal cells (RPE1)
# Type: cell-based
# protocol.conditions: Homo sapiens, RPE-1
Listing: IC50 of selected compounds
Express your answer in µM, writing the number without its unit.

N=c1c2c(-c3ccccc3)c(-c3ccccc3)n(Cc3cccc(CNC(=O)CCCCCNc4cccc5c4C(=O)N(C4CCC(=O)NC4=O)C5=O)c3)c2ncn1C1CCC(O)CC1 (stereo not drawn) [Compound 46]
0.47
N=c1c2c(-c3ccccc3)c(-c3ccccc3)n(Cc3ccccc3)c2ncn1[C@H]1CC[C@H](O)CC1 [Metarrestin]
2.5

Req: I would be grateful if you could share the reported IC50 for O=C1CCC(N2C(=O)c3cccc(NCCCCCNC(=O)c4ccc(Cn5c(-c6ccccc6)c(-c6ccccc6)c6c(NC7CCC(O)CC7)ncnc65)cc4)c3C2=O)C(=O)N1 (stereo not drawn) [Compound 49] .
Resp: 0.1
